- System: CD-1 mice
- test.summary: PTZ-induced epilepsy model in mice
- Format: in vivo
- settings: 3 mpk p.o., PTZ 120 mg/kg s.c., 30 min observation
For each entry below, report its Incubation period of the generalized tonic seizure (sec) Mean value.
Record the value in s, omitting the unit from your answer.

### Prompt Which measured Incubation period of the generalized tonic seizure (sec) Mean value corresponds to `C[C@@]1(O)CC[C@H]2[C@H](CC[C@@H]3[C@@H]2CC[C@@]2(C)[C@H]3[C@@H]3C[C@@H]3[C@@H]2C(=O)Cn2ccc(C#N)n2)C1` ?
### Response 1736.0

### Prompt Which measured Incubation period of the generalized tonic seizure (sec) Mean value corresponds to `C[C@@H]1C[C@H](C(=O)Cn2ccc(C#N)n2)[C@@]2(C)CC[C@H]3[C@@H](CC[C@@H]4C[C@](C)(O)CC[C@@H]43)[C@H]12` ?
### Response 1800.0

### Prompt Which measured Incubation period of the generalized tonic seizure (sec) Mean value corresponds to `Cc1nnn(CC(=O)[C@H]2C[C@@H](C3CC3)[C@H]3[C@@H]4CC[C@@H]5C[C@](C)(O)CC[C@@H]5[C@H]4CC[C@@]32C)n1` ?
### Response 1506.8

### Prompt Which measured Incubation period of the generalized tonic seizure (sec) Mean value corresponds to `C[C@@H]1C[C@H](C(=O)Cn2nccn2)[C@@]2(C)CC[C@H]3[C@@H](CC[C@@H]4C[C@](C)(O)CC[C@@H]43)[C@H]12` ?
### Response 1497.4

---

- test.summary: Solubility experiment (thermodynamic solubility at 37° C.)
- Type: physicochemical
- settings: FaSSGF (Fasted State Simulated Gastric Fluid), 37 °C, fassgf or other biorelevant, thermodynamic from solid, FaSSGF, 24 hours
recorded.metric: solubility at 24 h

### Prompt Which measured solubility at 24 h value corresponds to C[C@@H]1C[C@H](C(=O)Cn2ccc(C#N)n2)[C@@]2(C)CC[C@H]3[C@@H](CC[C@@H]4C[C@](C)(O)CC[C@@H]43)[C@H]12 [Crystal form I] ?
### Response < 1 µg/mL

---

- experimental.target: GABA-A receptor
- test.summary: 35S-TBPS binding assay (GABAA receptor binding ability assay)
- settings: rat cerebral cortex cell membrane, 5 μM GABA, 2 nM 35S-TBPS; read-out: IC50 on inhibiting the TBPS binding activity, 35S-TBPS bindng assay
pIC50: −log10 of the molar value.
Values of pIC50 greater than or equal to 8 map to fulfilled; values below map to not fulfilled.

### Prompt # check: pIC50 of `C[C@@]1(O)CC[C@H]2[C@H](CC[C@@H]3[C@@H]2CC[C@@]2(C)[C@H]3[C@H](C3CC3)C[C@@H]2C(=O)Cn2ccc(C(F)(F)F)n2)C1` is greater than or equal to 8
### Response not fulfilled

### Prompt # check: pIC50 of `Cc1nnn(CC(=O)[C@H]2C[C@@H](C)[C@H]3[C@@H]4CC[C@@H]5C[C@](C)(O)CC[C@@H]5[C@H]4CC[C@@]32C)n1` is greater than or equal to 8
### Response fulfilled

### Prompt # check: pIC50 of `CC[C@@H]1C[C@H](C(=O)Cn2ncnn2)[C@@]2(C)CC[C@H]3[C@@H](CC[C@@H]4C[C@](C)(O)CC[C@@H]43)[C@H]12` is greater than or equal to 8
### Response not fulfilled

### Prompt # check: pIC50 of `C[C@@]1(O)CC[C@H]2[C@H](CC[C@@H]3[C@@H]2CC[C@@]2(C)[C@H]3[C@@H]3C[C@@H]3[C@@H]2C(=O)Cn2ccc(C(F)(F)F)n2)C1` is greater than or equal to 8
### Response fulfilled

### Prompt # check: pIC50 of `CC[C@@H]1C[C@H](C(=O)Cn2nccn2)[C@@]2(C)CC[C@H]3[C@@H](CC[C@@H]4C[C@](C)(O)CC[C@@H]43)[C@H]12` is greater than or equal to 8
### Response not fulfilled

// data source = patent US12590118B2
